- testName: Inhibition of PDGFR
endpoint: log(10^6/IC50)
Give bare numbers.

Example entries and their recorded answers appear below.
[Q] Query: log(10^6/IC50); subject: CN(C)c1cc(-c2cc3cnc(N)nc3nc2NC(=O)NC(C)(C)C)cc(N(C)C)c1
[A] 1.3

[Q] Query: log(10^6/IC50); subject: CN1CCN(c2ccc(Nc3ncc4cc(-c5c(Cl)cccc5Cl)c(=O)n(C)c4n3)cc2)CC1
[A] 3.94

[Q] Suppose we examine the compound CN(C)c1ncc2cc(-c3c(Cl)cccc3Cl)c(=O)n(C)c2n1 ; what log(10^6/IC50) value has been reported?
[A] 1.3

[Q] GET /values?readout=log(10^6/IC50)&item= CCOc1cc(OCC)cc(-c2cc3cnc(N)nc3nc2NC(=O)NC(C)(C)C)c1
[A] 1.3

[Q] For COc1cc(OC)cc(-c2cc3cnc(N)nc3n(C)c2=O)c1 , what is its reported log(10^6/IC50)?
[A] 1.37

Dear reader, for each entry below, please note its log(10^6/IC50).
1. Cn1c(=O)c(-c2c(Cl)cccc2Cl)cc2cncnc21
2. Cc1ncc2cc(-c3c(Cl)cccc3Cl)c(=O)n(C)c2n1
3. Cn1c(=O)c(-c2c(Cl)cccc2Cl)cc2cnc(Nc3ccc(CC(=O)O)cc3)nc21

[A]
1: 1.3; 2: 1.3; 3: 4.15

[Q] What does the record list as log(10^6/IC50) for CC(C)(C)NC(=O)Nc1nc2nc(N)ncc2cc1-c1cc(C(F)(F)F)cc(C(F)(F)F)c1 ?
[A] 1.3

Source of measurements: ChEMBL document CHEMBL1143173
